Assay: activity coefficient (dimensionless); of the first substance listed, at infinite dilution; xn = mol fraction of the nth substance listed
Details: 313.15 K; 101.33 kPa; Liquid; Chromatography; x1 = 0
Categorize each record by its activity coefficient using range 1 (below 1), range 2 (1 to below 6), range 3 (6 or more)

molecule	category.label
CC(C)=O [acetone] + CCCCCCn1cc[n+](C)c1C.O=S(=O)([N-]S(=O)(=O)C(F)(F)F)C(F)(F)F	range 1
Cc1cccc(C)c1 [1,3-dimethylbenzene] + CCCCCCn1cc[n+](C)c1C.O=S(=O)([N-]S(=O)(=O)C(F)(F)F)C(F)(F)F	range 2
CCCCCCC [heptane] + CCCCCCn1cc[n+](C)c1C.O=S(=O)([N-]S(=O)(=O)C(F)(F)F)C(F)(F)F	range 3
CC1CCCCC1 [methylcyclohexane] + CCCCCCn1cc[n+](C)c1C.O=S(=O)([N-]S(=O)(=O)C(F)(F)F)C(F)(F)F	range 3
C1CCCCC1 [cyclohexane] + CCCCCCn1cc[n+](C)c1C.O=S(=O)([N-]S(=O)(=O)C(F)(F)F)C(F)(F)F	range 2
C1CCOC1 [tetrahydrofuran] + CCCCCCn1cc[n+](C)c1C.O=S(=O)([N-]S(=O)(=O)C(F)(F)F)C(F)(F)F	range 1
CCc1ccccc1 [ethylbenzene] + CCCCCCn1cc[n+](C)c1C.O=S(=O)([N-]S(=O)(=O)C(F)(F)F)C(F)(F)F	range 2
ClC(Cl)Cl [trichloromethane] + CCCCCCn1cc[n+](C)c1C.O=S(=O)([N-]S(=O)(=O)C(F)(F)F)C(F)(F)F	range 1
CCCCCCCC [octane] + CCCCCCn1cc[n+](C)c1C.O=S(=O)([N-]S(=O)(=O)C(F)(F)F)C(F)(F)F	range 3
CCCCCCCCCC [decane] + CCCCCCn1cc[n+](C)c1C.O=S(=O)([N-]S(=O)(=O)C(F)(F)F)C(F)(F)F	range 3
ClC(Cl)(Cl)Cl [tetrachloromethane] + CCCCCCn1cc[n+](C)c1C.O=S(=O)([N-]S(=O)(=O)C(F)(F)F)C(F)(F)F	range 2
CCCCCC [hexane] + CCCCCCn1cc[n+](C)c1C.O=S(=O)([N-]S(=O)(=O)C(F)(F)F)C(F)(F)F	range 3
CCCCC [pentane] + CCCCCCn1cc[n+](C)c1C.O=S(=O)([N-]S(=O)(=O)C(F)(F)F)C(F)(F)F	range 2
c1ccccc1 [benzene] + CCCCCCn1cc[n+](C)c1C.O=S(=O)([N-]S(=O)(=O)C(F)(F)F)C(F)(F)F	range 1

Origin of the recorded values: the NIST ThermoML archive (doi:10.1016/j.jct.2016.07.021)
